Target: T1, human sodium-dependent phosphate transporter 2B (NaPi2b) (human, UniProt O95436 1-690)
T1 construct: UniProt ID is given as 095436 [sic]; also called hNaPi2b; Hu NaPi2b
T1 sequence: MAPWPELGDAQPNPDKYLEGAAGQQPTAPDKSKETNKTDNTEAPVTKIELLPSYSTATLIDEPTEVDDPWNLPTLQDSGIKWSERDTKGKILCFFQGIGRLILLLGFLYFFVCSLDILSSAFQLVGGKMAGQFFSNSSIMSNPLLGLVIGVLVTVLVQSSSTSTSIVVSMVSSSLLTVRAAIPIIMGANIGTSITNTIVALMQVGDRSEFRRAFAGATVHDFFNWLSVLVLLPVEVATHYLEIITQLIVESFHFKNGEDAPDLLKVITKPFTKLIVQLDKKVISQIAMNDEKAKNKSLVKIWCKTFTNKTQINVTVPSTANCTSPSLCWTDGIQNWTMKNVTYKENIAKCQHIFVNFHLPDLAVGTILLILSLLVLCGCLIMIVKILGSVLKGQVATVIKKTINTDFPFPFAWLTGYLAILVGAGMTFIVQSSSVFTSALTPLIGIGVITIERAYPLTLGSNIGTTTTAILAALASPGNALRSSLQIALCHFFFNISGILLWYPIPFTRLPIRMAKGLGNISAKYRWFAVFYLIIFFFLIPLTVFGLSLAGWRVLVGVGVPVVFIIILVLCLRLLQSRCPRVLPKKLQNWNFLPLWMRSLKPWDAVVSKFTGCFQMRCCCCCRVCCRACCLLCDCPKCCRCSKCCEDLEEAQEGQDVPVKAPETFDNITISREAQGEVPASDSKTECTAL
Assay: flow cytometry, IGROV-1 cells (endogenous NaPi2b)
Design: unit not given here
readout-label: Bmax

>>> meas_value("v29449 (H4L3) (antibody, human IgG1, kappa, V domains shown, Humanized IgG1/kappa) VH: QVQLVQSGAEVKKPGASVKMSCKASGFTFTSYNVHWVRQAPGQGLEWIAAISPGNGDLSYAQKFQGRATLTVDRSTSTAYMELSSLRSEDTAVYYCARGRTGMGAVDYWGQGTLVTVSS VL: DVQMTQSPSSLSASVGDRVTITCRASQDVYSYLNWYQQKPGKAVKLLIYYTSRLQSGVPSRFSGSGSGTDYTLTISSLQPEDIATYYCQQYNIFPWTFGQGTKLEIKR")
44500
